- assay text: Tmax in dog at 2 mg/kg, po
- Format: ADME, organism-based, Canis lupus familiaris
- measurement parameters: in vivo
measurement kind: Tmax (h)

I: CC1(C(=O)N2CCC[C@@H](c3nc(-c4ccc(C(=O)Nc5cc(C(F)(F)F)ccn5)cc4F)c4c(N)nccn34)C2)COC1
II: C[C@H]1CC[C@@H](c2nc(-c3ccc(C(=O)Nc4cc(C(F)(F)F)ccn4)cc3F)c3c(N)nccn23)CN1C(=O)C1CC1
Q: // task: argmin of Tmax over [ I , II ] Let me know the label of the one you choose.
A: I
(I: 1 h, II: 2 h)

* * *

- assay text: Clearance in dog at 1 mg/kg, iv
- Type: ADME, organism-based, Canis lupus familiaris
- measurement parameters: in vivo
measurement kind: clearance (mL/min/kg)

P: CC1(C(=O)N2CCC[C@@H](c3nc(-c4ccc(C(=O)Nc5cc(C(F)(F)F)ccn5)cc4F)c4c(N)nccn34)C2)COC1
Q: C[C@H]1CC[C@@H](c2nc(-c3ccc(C(=O)Nc4cc(C(F)(F)F)ccn4)cc3F)c3c(N)nccn23)CN1C(=O)C1CC1
Q: Between the two listed entries P and Q , which has its clearance at the higher number? Let me know the label of the one you choose.
A: P

* * *

- assay text: Oral bioavailability in rat at 5 mg/kg
- Format: ADME, organism-based
- measurement parameters: in vivo
measurement kind: bioavailability (%)

A: CC1(C(=O)N2CCC[C@@H](c3nc(-c4ccc(C(=O)Nc5cc(C(F)(F)F)ccn5)cc4F)c4c(N)nccn34)C2)COC1
B: C[C@H]1CC[C@@H](c2nc(-c3ccc(C(=O)Nc4cc(C(F)(F)F)ccn4)cc3F)c3c(N)nccn23)CN1C(=O)C1CC1
Q: Between the two listed entries A and B , which has its bioavailability at the higher number? Let me know the label of the one you choose.
A: A
(A: 77%, B: 22%)

* * *

- assay text: Volume of distribution at steady state in rat at 4 mg/kg, iv
- Type: ADME, organism-based
- measurement parameters: in vivo, read-out: Vdss
measurement kind: Vd (L/kg)
Expressed in L/kg, but write only the number.

Q: What value of Vd has been recorded for this entry: `CC1(C(=O)N2CCC[C@@H](c3nc(-c4ccc(C(=O)Nc5cc(C(F)(F)F)ccn5)cc4)c4c(N)nccn34)C2)COC1`
A: 0.59

* * *

- assay text: Cmax in dog at 2 mg/kg, po
- Format: ADME, organism-based, Canis lupus familiaris
- Set-up: route oral, dose 2 mg/kg
- measurement parameters: in vivo
measurement kind: Cmax (nM)

A: CC1(C(=O)N2CCC[C@@H](c3nc(-c4ccc(C(=O)Nc5cc(C(F)(F)F)ccn5)cc4F)c4c(N)nccn34)C2)COC1
B: C[C@H]1CC[C@@H](c2nc(-c3ccc(C(=O)Nc4cc(C(F)(F)F)ccn4)cc3F)c3c(N)nccn23)CN1C(=O)C1CC1
Q: // task: argmin of Cmax over [ A , B ] Let me know the label of the one you choose.
A: A
(A: 780 nM, B: 3900 nM)

* * *

- assay text: Cmax in rat at 5 mg/kg, po
- Type: ADME, organism-based
- Design: route oral, dose 5 mg/kg
- measurement parameters: in vivo
measurement kind: Cmax (nM)

A: C[C@H]1CC[C@@H](c2nc(-c3ccc(C(=O)Nc4cc(C(F)(F)F)ccn4)cc3F)c3c(N)nccn23)CN1C(=O)C1CC1
B: CC1(C(=O)N2CCC[C@@H](c3nc(-c4ccc(C(=O)Nc5cc(C(F)(F)F)ccn5)cc4F)c4c(N)nccn34)C2)COC1
Q: Between the two listed entries A and B , which has its Cmax at the higher number? Let me know the label of the one you choose.
A: B

* * *

- assay text: Clearance in rat at 2 mg/kg, iv
- Format: ADME, organism-based
- measurement parameters: in vivo
measurement kind: clearance (mL/min/kg)

Q: What value of clearance has been recorded for this entry: `C[C@H]1CC[C@@H](c2nc(-c3ccc(C(=O)Nc4cc(C(F)(F)F)ccn4)cc3F)c3c(N)nccn23)CN1C(=O)C1CC1`
A: 18

Q: What value of clearance has been recorded for this entry: `CC1(C(=O)N2CCC[C@@H](c3nc(-c4ccc(C(=O)Nc5cc(C(F)(F)F)ccn5)cc4F)c4c(N)nccn34)C2)COC1`
A: 24

* * *

- assay text: Half life in rat at 4 mg/kg, iv
- Format: ADME, organism-based
- measurement parameters: in vivo
measurement kind: half-life (min)
Expressed in min, but write only the number.

Q: What value of half-life has been recorded for this entry: `CC1(C(=O)N2CCC[C@@H](c3nc(-c4ccc(C(=O)Nc5cc(C(F)(F)F)ccn5)cc4)c4c(N)nccn34)C2)COC1`
A: 72

* * *

- tested target: UniProt P51813
- Sequence (P51813 whole entry): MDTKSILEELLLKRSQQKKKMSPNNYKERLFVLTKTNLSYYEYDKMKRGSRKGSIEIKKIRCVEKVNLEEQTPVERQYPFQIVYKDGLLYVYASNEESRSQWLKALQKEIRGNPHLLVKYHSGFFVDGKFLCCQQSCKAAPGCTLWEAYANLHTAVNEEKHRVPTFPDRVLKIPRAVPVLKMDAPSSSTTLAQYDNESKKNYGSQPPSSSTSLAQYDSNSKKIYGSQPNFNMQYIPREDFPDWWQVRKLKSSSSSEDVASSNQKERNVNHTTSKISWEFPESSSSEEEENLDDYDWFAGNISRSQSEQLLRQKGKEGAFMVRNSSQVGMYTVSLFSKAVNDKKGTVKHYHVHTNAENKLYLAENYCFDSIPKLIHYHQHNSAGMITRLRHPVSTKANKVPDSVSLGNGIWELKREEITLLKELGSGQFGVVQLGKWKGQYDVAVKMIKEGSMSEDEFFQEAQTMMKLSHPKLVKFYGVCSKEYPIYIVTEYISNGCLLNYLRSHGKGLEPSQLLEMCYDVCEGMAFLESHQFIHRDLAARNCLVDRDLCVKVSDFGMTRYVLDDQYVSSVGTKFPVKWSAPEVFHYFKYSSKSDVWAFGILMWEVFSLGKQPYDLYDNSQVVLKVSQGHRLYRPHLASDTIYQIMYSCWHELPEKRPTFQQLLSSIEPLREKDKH
measurement kind: IC50 (nM)
Expressed in nM, but write only the number.

Q: Lookup: IC50 / UniProt P51813 / `CC1(C(=O)N2CCC[C@@H](c3nc(-c4ccc(C(=O)Nc5cc(C(F)(F)F)ccn5)cc4F)c4c(N)nccn34)C2)COC1`
A: 20

* * *

- tested target: Tyrosine-protein kinase Blk (Homo sapiens, UniProt P51451)
- Sequence (P51451 whole entry): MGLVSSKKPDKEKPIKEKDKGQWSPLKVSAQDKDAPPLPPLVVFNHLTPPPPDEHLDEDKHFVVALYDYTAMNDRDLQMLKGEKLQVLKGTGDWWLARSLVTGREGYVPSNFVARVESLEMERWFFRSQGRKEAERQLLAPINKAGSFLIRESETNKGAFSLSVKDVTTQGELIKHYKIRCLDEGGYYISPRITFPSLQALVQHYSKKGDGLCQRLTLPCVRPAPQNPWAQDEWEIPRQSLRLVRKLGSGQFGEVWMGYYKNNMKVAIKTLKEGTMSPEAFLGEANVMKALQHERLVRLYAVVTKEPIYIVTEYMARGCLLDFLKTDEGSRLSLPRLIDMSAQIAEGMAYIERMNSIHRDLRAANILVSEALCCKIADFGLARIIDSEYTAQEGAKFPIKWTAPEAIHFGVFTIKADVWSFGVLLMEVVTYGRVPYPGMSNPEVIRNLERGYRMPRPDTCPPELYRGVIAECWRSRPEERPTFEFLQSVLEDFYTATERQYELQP
measurement kind: pIC50
API: returns pIC50 as number; meaning -log10 of concentration in mol/L.

Q: What value of pIC50 has been recorded for this entry: `CC1(C(=O)N2CCC[C@@H](c3nc(-c4ccc(C(=O)Nc5cc(C(F)(F)F)ccn5)cc4F)c4c(N)nccn34)C2)COC1`
A: 7.38

* * *

- assay text: Tmax in rat at 5 mg/kg, po
- Assay type: ADME, organism-based
- measurement parameters: in vivo
measurement kind: Tmax (min)

P: CC1(C(=O)N2CCC[C@@H](c3nc(-c4ccc(C(=O)Nc5cc(C(F)(F)F)ccn5)cc4F)c4c(N)nccn34)C2)COC1
Q: C[C@H]1CC[C@@H](c2nc(-c3ccc(C(=O)Nc4cc(C(F)(F)F)ccn4)cc3F)c3c(N)nccn23)CN1C(=O)C1CC1
Q: Between the two listed entries P and Q , which has its Tmax at the higher number? Let me know the label of the one you choose.
A: Q
(Q: 60 min, P: 30 min)

* * *

- assay text: Half life in rat at 2 mg/kg, iv
- Assay type: ADME, organism-based
- measurement parameters: in vivo
measurement kind: half-life (h)

Q: What value of half-life has been recorded for this entry: `C[C@H]1CC[C@@H](c2nc(-c3ccc(C(=O)Nc4cc(C(F)(F)F)ccn4)cc3F)c3c(N)nccn23)CN1C(=O)C1CC1`
A: 1.8

Q: What value of half-life has been recorded for this entry: `CC1(C(=O)N2CCC[C@@H](c3nc(-c4ccc(C(=O)Nc5cc(C(F)(F)F)ccn5)cc4F)c4c(N)nccn34)C2)COC1`
A: 1.4

* * *

- tested target: Tyrosine-protein kinase Fgr (Homo sapiens, UniProt P09769)
- Sequence (P09769 whole entry): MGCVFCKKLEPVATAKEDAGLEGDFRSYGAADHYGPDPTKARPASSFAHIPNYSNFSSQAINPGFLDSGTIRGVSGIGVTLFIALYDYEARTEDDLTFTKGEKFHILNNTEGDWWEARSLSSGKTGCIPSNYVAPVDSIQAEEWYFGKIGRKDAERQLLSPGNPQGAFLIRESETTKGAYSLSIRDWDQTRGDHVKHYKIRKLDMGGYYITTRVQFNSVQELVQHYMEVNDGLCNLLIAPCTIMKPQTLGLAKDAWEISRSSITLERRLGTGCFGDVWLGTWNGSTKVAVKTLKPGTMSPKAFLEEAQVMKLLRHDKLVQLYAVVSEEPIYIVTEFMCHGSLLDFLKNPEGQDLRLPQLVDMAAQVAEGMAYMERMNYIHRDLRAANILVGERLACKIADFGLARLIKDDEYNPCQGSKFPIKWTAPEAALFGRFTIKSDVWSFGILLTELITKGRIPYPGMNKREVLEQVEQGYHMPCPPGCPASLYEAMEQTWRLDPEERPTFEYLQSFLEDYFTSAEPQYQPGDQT
measurement kind: IC50 (nM)
Expressed in nM, but write only the number.

Q: What value of IC50 has been recorded for this entry: `CC1(C(=O)N2CCC[C@@H](c3nc(-c4ccc(C(=O)Nc5cc(C(F)(F)F)ccn5)cc4F)c4c(N)nccn34)C2)COC1`
A: 55

* * *

- tested target: Tyrosine-protein kinase TXK (Homo sapiens)
- Sequence (P42681 whole entry): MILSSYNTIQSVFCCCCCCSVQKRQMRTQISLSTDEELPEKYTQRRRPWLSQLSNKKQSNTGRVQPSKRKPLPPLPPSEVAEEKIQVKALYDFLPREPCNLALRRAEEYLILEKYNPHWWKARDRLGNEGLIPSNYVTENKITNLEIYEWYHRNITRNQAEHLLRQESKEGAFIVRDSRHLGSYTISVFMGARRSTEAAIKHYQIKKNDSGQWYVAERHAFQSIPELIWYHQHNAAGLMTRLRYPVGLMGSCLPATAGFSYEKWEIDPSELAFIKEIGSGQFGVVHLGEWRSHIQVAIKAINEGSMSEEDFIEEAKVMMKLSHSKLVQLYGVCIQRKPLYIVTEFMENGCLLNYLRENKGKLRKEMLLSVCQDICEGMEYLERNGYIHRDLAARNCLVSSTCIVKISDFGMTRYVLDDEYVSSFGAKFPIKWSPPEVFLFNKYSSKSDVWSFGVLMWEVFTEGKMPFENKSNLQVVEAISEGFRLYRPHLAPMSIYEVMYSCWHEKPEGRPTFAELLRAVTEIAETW
measurement kind: IC50 (nM)
Expressed in nM, but write only the number.

Q: Lookup: IC50 / Tyrosine-protein kinase TXK (Homo sapiens) / `CC1(C(=O)N2CCC[C@@H](c3nc(-c4ccc(C(=O)Nc5cc(C(F)(F)F)ccn5)cc4F)c4c(N)nccn34)C2)COC1`
A: 32

These data points were gathered from ChEMBL document CHEMBL4715708.
